Attribute: pIC50
Protein target, amino acids: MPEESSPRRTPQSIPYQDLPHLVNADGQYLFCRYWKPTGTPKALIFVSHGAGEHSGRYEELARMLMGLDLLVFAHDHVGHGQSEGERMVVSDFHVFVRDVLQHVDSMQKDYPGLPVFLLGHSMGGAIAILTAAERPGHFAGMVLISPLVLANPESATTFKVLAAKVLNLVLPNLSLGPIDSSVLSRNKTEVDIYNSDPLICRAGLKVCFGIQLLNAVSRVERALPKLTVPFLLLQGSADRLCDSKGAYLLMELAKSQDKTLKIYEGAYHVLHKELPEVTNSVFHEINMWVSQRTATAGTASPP
Entry type: numeric. Quantity: pIC50, the -log10 of concentration in molar units.

# count of solved cases: 3
{"item smiles": "Cn1ncc(C(F)(F)F)c1CN1CCC2(CC1)CN(C(=O)N1CC3(CC(n4cnc(C5CC5)n4)C3)C1)C2", "pIC50": 9.39}
{"item smiles": "Cc1cc(C2CC2)nn1CC1CC2(C1)CN(C(=O)N1CC3(CC(n4cnc(C5(O)CC5)n4)C3)C1)C2", "pIC50": 8.26}
{"item smiles": "O=C(N1CC2(CC(n3cnc(C4(O)CC4)n3)C2)C1)N1CC2(CN(Cc3ncc(C(F)F)s3)C2)C1", "pIC50": 7.08}

Then there is this molecule:
Task: Tell me its pIC50 given O=C(N1CC2(CCN(Cc3nc(C(F)(F)F)cs3)CC2)C1)N1CC2(CC(n3cnc(C4CC4)n3)C2)C1 as the entry.
Result: 8.01

---

# target under test: hMAGL (Homo sapiens, UniProt Q99685)
# Sequence (Q99685 1-303): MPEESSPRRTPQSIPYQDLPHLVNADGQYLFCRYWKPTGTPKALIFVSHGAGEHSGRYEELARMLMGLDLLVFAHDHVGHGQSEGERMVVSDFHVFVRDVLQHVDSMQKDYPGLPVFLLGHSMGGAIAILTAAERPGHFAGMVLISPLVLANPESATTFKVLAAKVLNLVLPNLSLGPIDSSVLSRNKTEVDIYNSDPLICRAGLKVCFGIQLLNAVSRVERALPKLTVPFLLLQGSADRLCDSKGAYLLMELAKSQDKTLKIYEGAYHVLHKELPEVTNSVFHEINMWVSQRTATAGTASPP
Measured pIC50 values are reported for all entries that follow.
For clarity, pIC50 is expressed as the negative log10 of concentration in mol/L.

Take a look at these entries with their results.
{"molecule": "O=C(N1CC2(CC(n3cnc(C(F)(F)F)n3)C2)C1)N1CC2(CN(Cc3cc[nH]n3)C2)C1 [Example 284]", "target under test": "hMAGL (Homo sapiens, UniProt Q99685)", "pIC50": 5.64}
{"molecule": "CC(C)(C)c1conc1CN1CC2(C1)CN(C(=O)N1CC3(CC(n4cnc(C5CC5)n4)C3)C1)C2 [Example 256]", "target under test": "hMAGL (Homo sapiens, UniProt Q99685)", "pIC50": 8.55}
{"molecule": "O=C(N1CC2(CC(Cn3cc(C4(C(F)(F)F)CC4)cn3)C2)C1)N1CC2(CC(n3cnc(C4(O)CC4)n3)C2)C1 [Example 60]", "target under test": "hMAGL (Homo sapiens, UniProt Q99685)", "pIC50": 8.79}

Read the next record carefully.
Task: Report measured pIC50 on hMAGL (Homo sapiens, UniProt Q99685); entry: O=C(N1CC2(CC(Cc3cn(C4CC4)nc3C(F)(F)F)C2)C1)N1CC2(CC(n3cnc(C(F)(F)F)n3)C2)C1 [Example 61]
Result: 9.59

---

# target under test: hMAGL (Homo sapiens)
test readout: IC50 (nM)
Please reply with the bare figure in nM and do not write the unit itself.

Example molecules with recorded IC50:
{"molecule": "Cc1cc(C(F)(F)F)nn1CC1CC2(C1)CN(C(=O)N1CC3(CC(n4cnc(C5(O)CC5)n4)C3)C1)C2 [Example 70]", "target under test": "hMAGL (Homo sapiens)", "IC50, nM": 131}
{"molecule": "Cn1nc(CC2CC3(C2)CN(C(=O)N2CC4(CC(n5cnc(C6(O)CC6)n5)C4)C2)C3)c(C(F)(F)F)n1 [Example 137]", "target under test": "hMAGL (Homo sapiens)", "IC50, nM": 2.4}
{"molecule": "O=C(N1CC2(CC(n3cnc(C4CC4)n3)C2)C1)N1CC2(CN(Cc3nc(C(F)(F)F)co3)C2)C1 [Example 217]", "target under test": "hMAGL (Homo sapiens)", "IC50, nM": 13.7}

Task: Provide hMAGL (Homo sapiens) IC50 reading for O=C(N1CC2(CC(Cc3cc(C(F)(F)F)n[nH]3)C2)C1)N1CC2(CC(n3cnc(C(F)F)n3)C2)C1 [Example 343] .
Result: 2.62

---

Sequence of the target: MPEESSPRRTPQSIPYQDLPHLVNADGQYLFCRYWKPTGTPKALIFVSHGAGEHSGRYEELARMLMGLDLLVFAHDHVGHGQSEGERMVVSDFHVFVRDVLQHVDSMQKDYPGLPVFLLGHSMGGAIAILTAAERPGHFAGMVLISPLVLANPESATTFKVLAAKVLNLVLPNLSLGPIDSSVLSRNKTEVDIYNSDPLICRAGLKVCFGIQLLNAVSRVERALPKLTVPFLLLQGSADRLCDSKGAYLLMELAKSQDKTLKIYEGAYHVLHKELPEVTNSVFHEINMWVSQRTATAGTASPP
IC50 overview
A number alone suffices; assume nM.

{"item smiles": "O=C(N1CC2(CC(Cc3n[nH]c(C4(C(F)(F)F)CC4)n3)C2)C1)N1CC2(CC(n3cnc(C(F)F)n3)C2)C1", "IC50 / nM": 9.06}
{"item smiles": "O=C(N1CC2(CC(n3cnc(C4CC4)n3)C2)C1)N1CC2(CN(Cc3cc(C4CC4)n[nH]3)C2)C1", "IC50 / nM": 8}
{"item smiles": "O=C(N1CC2(CC(n3cnc(C4(O)CC4)n3)C2)C1)N1CC2(CN(Cc3nc(C4CC4)cs3)C2)C1", "IC50 / nM": 232}
{"item smiles": "O=C(N1CC2(CC(n3cnc(C(F)(F)F)n3)C2)C1)N1CC2(CN(Cc3nc(CC4CC4)no3)C2)C1", "IC50 / nM": 76.3}
{"item smiles": "O=C(N1CC2(CC(n3cnc(C4CC4)n3)C2)C1)N1CC2(CN(Cc3coc(C(F)(F)F)n3)C2)C1", "IC50 / nM": 28.5}
{"item smiles": "Cn1nc(C(F)(F)F)cc1CN1CCC2(CC1)CN(C(=O)N1CC3(CC(n4cnc(C5CC5)n4)C3)C1)C2", "IC50 / nM": 3.42}
{"item smiles": "O=C(N1CC2(CC(Cc3cc(C4CC4)n[nH]3)C2)C1)N1CC2(CC(n3cnc(C(F)(F)F)n3)C2)C1", "IC50 / nM": 0.34}
{"item smiles": "Cn1ncc(C(F)(F)F)c1CN1CCC2(CC1)CN(C(=O)N1CC3(CC(c4cc(C5CC5)n[nH]4)C3)C1)C2", "IC50 / nM": 0.32}

Task: Please supply the value of reported IC50 for the item O=C(N1CC2(CC(c3cc(C4CC4)n[nH]3)C2)C1)N1CC2(CN(Cc3ncc(C(F)F)s3)C2)C1
Result: 3.44

Task: Please report IC50 for the following compound: O=C(N1CC2(CC(Cn3ncnc3C(F)(F)F)C2)C1)N1CC2(CC(n3cnc(C4CC4)n3)C2)C1
Result: 2.22

Task: Using known records, supply IC50 for O=C(N1CC2(CC(Cc3n[nH]cc3C(F)(F)F)C2)C1)N1CC2(CC(n3cnc(C(F)(F)F)n3)C2)C1
Result: 0.31

---

# target under test: hMAGL (Homo sapiens, UniProt Q99685)
pIC50: −log10 of the molar value.
Please assign a class to every record based on measured pIC50, with ranges class 0 = under 7, class 1 = from 7 up to 8, class 2 = 8 and over

{"item smiles": "CC(C)(C)c1csc(CN2CC3(C2)CN(C(=O)N2CC4(CC(n5cnc(C(F)(F)F)n5)C4)C2)C3)n1", "assigned class": "class 2"}

Task: Category of O=C(N1CC2(CC(Cc3cnn(CC(F)(F)F)c3)C2)C1)N1CC2(CC(c3cc(C4CC4)n[nH]3)C2)C1 , please.
Result: class 2

Task: Please report the category associated with O=C(N1CC2(CC(c3cc(C4CC4)n[nH]3)C2)C1)N1CC2(CN(Cc3nc(C(F)(F)F)co3)C2)C1 , nothing else.
Result: class 1

Task: Exercise: read the entry O=C(N1CC2(CC(Cc3nc(C(F)(F)F)c[nH]3)C2)C1)N1CC2(CC(n3cnc(C(F)(F)F)n3)C2)C1 and state which class it falls under.
Result: class 2

Task: For this compound, which bin applies? Cc1cc(C(F)F)n(CC2CC3(C2)CN(C(=O)N2CC4(CC(n5cnc(C6CC6)n5)C4)C2)C3)n1
Result: class 2

Task: Consider CC(C)(C)c1nnc(CN2CC3(C2)CN(C(=O)N2CC4(CC(n5cnc(C6(O)CC6)n5)C4)C2)C3)s1 . To which pIC50 class does it belong?
Result: class 1

Task: Which bin, given its pIC50, does O=C(N1CC2(CC(n3cnc(C4CC4)n3)C2)C1)N1CC2(CN(Cc3snnc3C3CCC3)C2)C1 occupy?
Result: class 2

Task: Kindly state the category for this compound: O=C(N1CC2(CC(n3cnc(C4(O)CC4)n3)C2)C1)N1CC2(CN(Cc3nnc(C(F)(F)F)s3)C2)C1
Result: class 0

Task: Band for O=C(N1CC2(CC(n3cnc(C(F)(F)F)n3)C2)C1)N1CC2(CN(Cc3ccn(CCC(F)(F)F)n3)C2)C1 ?
Result: class 0

Task: Band for the recorded pIC50 of Cc1cc(C2CC2)n(CC2CC3(C2)CN(C(=O)N2CC4(CC(n5cnc(C6CC6)n5)C4)C2)C3)n1 ?
Result: class 2

Task: // return the class label for O=C(N1CC2(CC(c3cc(C4CC4)n[nH]3)C2)C1)N1CC2(CN(Cc3nc(C4CC4)ns3)C2)C1
Result: class 2

Task: Assign a category based on measured pIC50 for Cc1cc(C2CC2)nn1CC1CC2(C1)CN(C(=O)N1CC3(CC(n4cnc(C(F)(F)F)n4)C3)C1)C2 and give only the class name.
Result: class 2

Task: Bin this entry: Cc1c(CN2CC3(C2)CN(C(=O)N2CC4(CC(n5cnc(C6CC6)n5)C4)C2)C3)cnn1C
Result: class 0

Task: Kindly state the category for this compound: O=C(N1CC2(CC(n3cnc(C(F)(F)F)n3)C2)C1)N1CC2(CN(Cc3nc(C(F)(F)F)n[nH]3)C2)C1
Result: class 0

Task: Bin this entry: Cn1nnc(CN2CC3(C2)CN(C(=O)N2CC4(CC(n5cnc(C6CC6)n5)C4)C2)C3)c1C(F)(F)F
Result: class 1

Task: Band assignment needed for CC(F)(F)c1noc(CN2CC3(C2)CN(C(=O)N2CC4(CC(n5cnc(C(F)(F)F)n5)C4)C2)C3)n1 please.
Result: class 1
